- STUDY SYSTEM: Histone deacetylase 1 (Homo sapiens, UniProt Q13547)
- Sequence (Q13547 whole entry): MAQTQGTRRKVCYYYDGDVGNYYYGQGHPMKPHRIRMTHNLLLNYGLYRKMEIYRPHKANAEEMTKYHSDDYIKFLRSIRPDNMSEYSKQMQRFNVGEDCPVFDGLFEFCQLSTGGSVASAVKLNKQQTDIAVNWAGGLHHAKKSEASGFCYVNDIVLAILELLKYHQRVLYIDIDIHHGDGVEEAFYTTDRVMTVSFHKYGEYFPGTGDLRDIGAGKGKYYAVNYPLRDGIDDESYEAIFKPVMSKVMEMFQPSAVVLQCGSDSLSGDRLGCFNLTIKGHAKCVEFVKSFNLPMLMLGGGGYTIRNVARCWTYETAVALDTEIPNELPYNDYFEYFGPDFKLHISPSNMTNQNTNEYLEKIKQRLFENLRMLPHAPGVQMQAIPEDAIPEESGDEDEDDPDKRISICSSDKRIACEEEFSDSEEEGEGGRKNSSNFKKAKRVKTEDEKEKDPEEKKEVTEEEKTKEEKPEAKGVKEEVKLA
pIC50: −log10 of the molar value.
METRIC: pIC50

Consider the following illustrative entries.
Nc1ccccc1NC(=O)c1ccc(C(C(=O)Nc2ccccc2)C(=O)Nc2ccccc2)cc1 ... 7.44
COc1cccc(NC(=O)C(C(=O)Nc2cccc(OC)c2)c2ccc(C(=O)Nc3ccccc3N)cc2)c1 ... 7.46
Nc1ccccc1NC(=O)c1ccc(C(C(=O)Nc2cccc(N3CCOCC3)c2)C(=O)Nc2cccc(N3CCOCC3)c2)cc1 ... 7.35
N#Cc1cccc(NC(=O)C(C(=O)Nc2cccc(C#N)c2)c2ccc(C(=O)Nc3ccccc3N)cc2)c1 ... 7.47

P: CN(C(=O)C(C(=O)N(C)c1ccccc1)c1ccc(C(=O)Nc2ccccc2N)cc1)c1ccccc1
Q: COc1ccccc1NC(=O)C(C(=O)Nc1ccccc1OC)c1ccc(C(=O)Nc2ccccc2N)cc1
R: CC(C)(C)c1ccc(C(=O)NO)cc1
S: Nc1ccccc1NC(=O)c1ccc(C(C(=O)NCc2ccccc2)C(=O)NCc2ccccc2)cc1
T: Nc1ccccc1NC(=O)c1ccc(C(O)(C(=O)Nc2ccccc2)C(=O)Nc2ccccc2)cc1
# rank by pIC50, ascending (min first) Note for the reader: the ranking is given by listing the labels in the order requested.
P, R, S, T, Q
(P: 5.14, R: 6.15, S: 6.70, T: 7.03, Q: 7.33)

====

- MEASUREMENT NOTES: Volume of distribution in rhesus monkey at 1.0 mg/kg, iv
- Assay type: ADME, organism-based, Macaca mulatta
- Design: dose 1 mg/kg, route intravenous
- STUDY CONDITIONS: in vivo
METRIC: Vd (L/kg)
Your answer should be a plain number; it is taken to be in L/kg.

Identify the reported Vd for the following entry. Nc1ccccc1NC(=O)c1ccc(C(C(=O)Nc2ccccc2)C(=O)Nc2ccccc2)cc1
1.7

====

- MEASUREMENT NOTES: Half life in dog at 1.2 mg/kg, po
- Assay type: ADME, organism-based, Canis lupus familiaris
- Design: dose 1.2 mg/kg, route oral
- STUDY CONDITIONS: in vivo
METRIC: half-life (h)
Your answer should be a plain number; it is taken to be in h.

Identify the reported half-life for the following entry. Nc1ccccc1NC(=O)c1ccc(C(C(=O)Nc2ccccc2)C(=O)Nc2ccccc2)cc1
8.5

====

- MEASUREMENT NOTES: Bioavailability in rhesus monkey at 2.0 mg/kg, po
- Format: ADME, organism-based, Macaca mulatta
- STUDY CONDITIONS: in vivo
METRIC: bioavailability (%)
Your answer should be a plain number; it is taken to be in %.

Identify the reported bioavailability for the following entry. Nc1ccccc1NC(=O)c1ccc(C(C(=O)Nc2ccccc2)C(=O)Nc2ccccc2)cc1
27

====

- MEASUREMENT NOTES: Half life in rhesus monkey at 2.0 mg/kg, po
- Assay type: ADME, organism-based, Macaca mulatta
- Parameters: dose 2 mg/kg, route oral
- STUDY CONDITIONS: in vivo
METRIC: half-life (h)
Your answer should be a plain number; it is taken to be in h.

Identify the reported half-life for the following entry. Nc1ccccc1NC(=O)c1ccc(C(C(=O)Nc2ccccc2)C(=O)Nc2ccccc2)cc1
10.4

====

- MEASUREMENT NOTES: Plasma clearance in rhesus monkey at 1.0 mg/kg, iv
- Format: ADME, organism-based, Macaca mulatta
- Set-up: dose 1 mg/kg, route intravenous
METRIC: clearance (mL/min/kg)
Your answer should be a plain number; it is taken to be in mL/min/kg.

Identify the reported clearance for the following entry. Nc1ccccc1NC(=O)c1ccc(C(C(=O)Nc2ccccc2)C(=O)Nc2ccccc2)cc1
12

====

What follows is a record of pIC50 for Histone deacetylase 1 (Homo sapiens, UniProt Q13547).
pIC50: −log10 of the molar value.
METRIC: pIC50

Nc1ccccc1NC(=O)c1ccc(C(C(=O)Nc2cccc3cccnc23)C(=O)Nc2cccc3cccnc23)cc1 ... 6.99

A: CC(=O)NO [ACETOHYDROXAMIC ACID]
B: O=C(NO)c1ccccc1 [BENZOHYDROXAMATE]
Which of these two has the smaller recorded pIC50: A or B ? Lab log: write the label of the selected item as the result.
A
(A: 3.20, B: 4.70)

A: Nc1ccccc1NC(=O)c1ccc(C(C(=O)Nc2ccc3c(c2)OCCO3)C(=O)Nc2ccc3c(c2)OCCO3)cc1
B: CC(Cc1ccc(C(=O)Nc2ccccc2N)cc1)(C(=O)Nc1ccccc1)C(=O)Nc1ccccc1
Given the listed records, identify the one among A and B with higher pIC50. Lab log: write the label of the selected item as the result.
A
(A: 7.68, B: 6.70)

====

- MEASUREMENT NOTES: Volume of distribution in rat at 2.0 mg/kg, iv
- Type: ADME, organism-based
- Design: dose 2 mg/kg, route intravenous
- STUDY CONDITIONS: in vivo
METRIC: Vd (L/kg)
Your answer should be a plain number; it is taken to be in L/kg.

Identify the reported Vd for the following entry. Nc1ccccc1NC(=O)c1ccc(C(C(=O)Nc2ccccc2)C(=O)Nc2ccccc2)cc1
12

====

- MEASUREMENT NOTES: Plasma clearance in dog at 0.6 mg/kg, iv
- Type: ADME, organism-based, Canis lupus familiaris
- Parameters: dose 0.6 mg/kg, route intravenous
METRIC: clearance (mL/min/kg)
Your answer should be a plain number; it is taken to be in mL/min/kg.

Identify the reported clearance for the following entry. Nc1ccccc1NC(=O)c1ccc(C(C(=O)Nc2ccccc2)C(=O)Nc2ccccc2)cc1
3

====

- MEASUREMENT NOTES: Bioavailability in dog at 1.2 mg/kg, po
- Assay type: ADME, organism-based, Canis lupus familiaris
- STUDY CONDITIONS: in vivo
METRIC: bioavailability (%)
Your answer should be a plain number; it is taken to be in %.

Identify the reported bioavailability for the following entry. Nc1ccccc1NC(=O)c1ccc(C(C(=O)Nc2ccccc2)C(=O)Nc2ccccc2)cc1
88

====

- STUDY SYSTEM: Protein deacetylase HDAC6 (Homo sapiens)
- Sequence (Q9UBN7 whole entry): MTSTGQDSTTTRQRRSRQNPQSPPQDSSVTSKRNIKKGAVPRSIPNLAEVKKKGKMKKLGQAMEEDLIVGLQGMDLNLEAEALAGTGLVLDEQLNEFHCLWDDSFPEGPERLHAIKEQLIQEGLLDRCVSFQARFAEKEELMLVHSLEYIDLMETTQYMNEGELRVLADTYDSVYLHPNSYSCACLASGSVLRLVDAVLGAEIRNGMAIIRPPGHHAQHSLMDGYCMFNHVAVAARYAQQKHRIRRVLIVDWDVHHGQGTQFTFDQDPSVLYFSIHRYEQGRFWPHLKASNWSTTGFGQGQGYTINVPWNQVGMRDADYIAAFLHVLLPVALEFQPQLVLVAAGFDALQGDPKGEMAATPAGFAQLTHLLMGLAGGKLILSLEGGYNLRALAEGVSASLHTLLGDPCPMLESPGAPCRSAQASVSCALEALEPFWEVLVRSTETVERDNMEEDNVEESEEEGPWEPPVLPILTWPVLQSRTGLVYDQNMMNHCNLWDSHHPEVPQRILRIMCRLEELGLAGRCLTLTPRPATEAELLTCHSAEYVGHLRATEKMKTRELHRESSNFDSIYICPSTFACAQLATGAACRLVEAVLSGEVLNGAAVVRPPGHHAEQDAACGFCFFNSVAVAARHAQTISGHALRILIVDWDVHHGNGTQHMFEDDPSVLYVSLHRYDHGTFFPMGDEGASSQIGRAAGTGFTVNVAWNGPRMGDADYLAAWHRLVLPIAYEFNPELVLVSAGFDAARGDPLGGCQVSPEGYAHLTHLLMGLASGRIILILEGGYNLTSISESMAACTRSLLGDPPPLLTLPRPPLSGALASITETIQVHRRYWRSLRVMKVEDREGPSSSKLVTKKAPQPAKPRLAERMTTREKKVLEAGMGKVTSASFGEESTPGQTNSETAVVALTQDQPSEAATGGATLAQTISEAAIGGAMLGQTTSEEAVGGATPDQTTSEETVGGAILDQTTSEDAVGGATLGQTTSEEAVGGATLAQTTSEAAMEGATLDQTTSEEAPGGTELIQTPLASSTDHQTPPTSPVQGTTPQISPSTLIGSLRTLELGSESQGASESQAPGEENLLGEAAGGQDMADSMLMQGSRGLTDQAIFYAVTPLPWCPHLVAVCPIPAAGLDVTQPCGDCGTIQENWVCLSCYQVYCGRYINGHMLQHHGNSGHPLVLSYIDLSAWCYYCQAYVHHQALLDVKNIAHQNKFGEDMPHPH
METRIC: IC50

Identify the reported IC50 for the following entry. Nc1ccccc1NC(=O)c1ccc(C(C(=O)Nc2ccccc2)C(=O)Nc2ccccc2)cc1
> 10 µM

The measured values listed here are drawn from ChEMBL document CHEMBL1140029.
